Provenance of the data: patent US6436943B1

RESULT_TYPE: melting point

Some compounds with known melting point results, for comparison:
>>> result("COC(=O)C1=C(C)NC(c2ccccn2)=NC1c1ccccc1[N+](=O)[O-] (stereo not drawn)")
"167 to 168 °C"
>>> result("CC1=C(C(=O)OCCC#N)C(c2ccccc2Cl)N=C(c2ccccn2)N1 (stereo not drawn)")
"138 to 139 °C"

Next compound, melting point to be filled in.
Given item COC(=O)C1=C(C)NC(c2ccccn2)=NC1c1ccccc1OC (stereo not drawn) , the value recorded as its melting point is 103 to 104 °C
